B1: library; numbered along this chain (parent)
chain: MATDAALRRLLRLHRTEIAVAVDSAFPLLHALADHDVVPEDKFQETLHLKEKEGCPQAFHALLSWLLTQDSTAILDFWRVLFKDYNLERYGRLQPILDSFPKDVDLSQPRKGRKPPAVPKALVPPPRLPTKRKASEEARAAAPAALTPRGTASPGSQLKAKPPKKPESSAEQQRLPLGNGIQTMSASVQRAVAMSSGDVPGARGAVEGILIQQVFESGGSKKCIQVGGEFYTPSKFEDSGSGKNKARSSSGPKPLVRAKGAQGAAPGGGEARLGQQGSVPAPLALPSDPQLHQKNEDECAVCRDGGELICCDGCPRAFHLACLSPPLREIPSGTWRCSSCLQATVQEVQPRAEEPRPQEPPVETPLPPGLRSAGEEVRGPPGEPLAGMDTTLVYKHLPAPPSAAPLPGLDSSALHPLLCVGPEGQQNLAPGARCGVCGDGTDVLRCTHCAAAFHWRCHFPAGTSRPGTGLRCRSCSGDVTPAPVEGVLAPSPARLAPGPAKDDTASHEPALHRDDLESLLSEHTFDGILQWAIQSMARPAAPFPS

Variants of: B1
Experiment: AIRE transcriptional activation functional score (insulin promoter-GFP; nonsense median 0, synonymous median 1) (normalised score); higher = higher AIRE activity (more reporter activation)
Details: with insulin promoter-GFP reporter in HEK293
Kindly state AIRE transcriptional activation functional score for each of the entries shown.
No unit in the answer, please; the number alone is enough.

input: Quick one: AIRE transcriptional activation functional score for D36C ?
output: -0.525

input: What would you report for P466L ?
output: 1.1

input: What would you report for L327P ?
output: 0.673

input: What would you report for F77M ?
output: 0.136

input: What would you report for L392H ?
output: 0.636

input: What would you report for H48T ?
output: 0.372

input: What would you report for W531N ?
output: -0.329

input: What would you report for P163S ?
output: 1.3

input: What would you report for L97G ?
output: -0.102

input: What would you report for L366W ?
output: 1.29

input: What would you report for F459D ?
output: 0.929

input: What would you report for Q358K ?
output: 1.02

input: What would you report for R465G ?
output: 0.791

input: What would you report for E375N ?
output: 1.89

input: What would you report for M536D ?
output: 0.726

input: What would you report for A58Y ?
output: -0.204

input: What would you report for L81M ?
output: -0.00473

input: What would you report for Q426C ?
output: 1.4

input: What would you report for E136V ?
output: 0.704

input: What would you report for E359S ?
output: 1.27

input: What would you report for E423H ?
output: 1.2

input: What would you report for P289F ?
output: 0.919

input: What would you report for D238E ?
output: 0.685

input: What would you report for E383P ?
output: 0.887

input: What would you report for G155Q ?
output: -0.156

input: What would you report for V377N ?
output: 1.2

input: What would you report for P542C ?
output: 1.05

input: What would you report for P492W ?
output: 0.687

input: What would you report for L75N ?
output: 1.01

input: What would you report for P539N ?
output: 0.745

input: What would you report for L11S ?
output: 0.17

input: What would you report for G112S ?
output: 0.851

input: What would you report for L370C ?
output: 1.12

input: What would you report for V20T ?
output: 0.0422

input: What would you report for E307G ?
output: 1.18

input: What would you report for P407N ?
output: 1.39

input: What would you report for R471M ?
output: 1.36

input: What would you report for P490F ?
output: 0.986

input: What would you report for D503N ?
output: 0.852

input: What would you report for H35T ?
output: -0.0166

input: What would you report for L495G ?
output: 1.05

input: What would you report for P360L ?
output: 1.06

input: What would you report for N179L ?
output: 0.991

input: What would you report for L75Y ?
output: 1.52

input: What would you report for N295V ?
output: 1.09

input: What would you report for G469R ?
output: 0.913
